Reported Ki values for the following compounds.
Molecular target: Delta-type opioid receptor (Homo sapiens, UniProt P41143)
Sequence (P41143 whole entry): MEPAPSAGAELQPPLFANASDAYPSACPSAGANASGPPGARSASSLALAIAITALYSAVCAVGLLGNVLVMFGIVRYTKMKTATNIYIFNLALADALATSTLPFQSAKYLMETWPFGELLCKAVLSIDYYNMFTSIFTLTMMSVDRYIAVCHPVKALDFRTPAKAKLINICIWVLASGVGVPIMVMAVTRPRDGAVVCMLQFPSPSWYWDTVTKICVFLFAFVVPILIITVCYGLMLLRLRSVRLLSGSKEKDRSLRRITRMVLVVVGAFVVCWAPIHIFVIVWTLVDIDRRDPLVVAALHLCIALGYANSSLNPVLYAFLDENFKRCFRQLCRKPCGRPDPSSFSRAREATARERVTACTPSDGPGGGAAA
Experiment: Displacement of [3H]DADLE from delta opioid receptor (unknown origin) expressed in HEK293T cells after 1.5 hrs by radioligand binding assay

COMPOUND | TESTED_ON | Ki
C=CC(C)C(=O)O[C@H]1C[C@@H](C(=O)OC)[C@]2(C)CC[C@H]3C(=O)O[C@H](c4ccoc4)C[C@]3(C)[C@H]2C1=O (stereo partly specified) | Delta-type opioid receptor (Homo sapiens, UniProt P41143) | 3.03 µM
COC(=O)[C@@H]1C[C@H](OC(=O)/C=C/c2ccc3c(c2)OCO3)C(=O)[C@H]2[C@@]1(C)CC[C@H]1C(=O)O[C@H](c3ccoc3)C[C@]21C | Delta-type opioid receptor (Homo sapiens, UniProt P41143) | > 10 µM

Would you kindly look at the next entry?
Look up Ki: C=CCC(=O)O[C@H]1C[C@@H](C(=O)OC)[C@]2(C)CC[C@H]3C(=O)O[C@H](c4ccoc4)C[C@]3(C)[C@H]2C1=O
3.26 µM

These measurements were taken from ChEMBL document CHEMBL3351980.
